Taken from patent US20260167623A1.

Reported values of DC50 for individual entries
experimentalTarget: CDK2 (Homo sapiens)
Construct: High-Throughput Measurement of Cellular Endogenous CDK2; endogenous in cells; host or cells: OVCAR3
testProtocol: High-throughput HTRF measurement of cellular endogenous CDK2 level (degradation, DC50/Dmax) in OVCAR3 cells, 6 h
Format: cell-based
conditionInfo: 6 h compound treatment, HTRF total CDK2, read-out: DC50_OVCAR3_6h

1) O=C1CCC(N2Cc3cc(N4CCC(N5CC(Oc6cccc(S(=O)(=O)N7CCC(Nc8ncc(C(F)(F)F)cn8)CC7)c6)C5)CC4)ccc3C2=O)C(=O)N1 (centres unmarked); 1 to 10 nM
2) O=C1CCC(N2Cc3cc(N4CCC(CN5CCN(c6cccc(S(=O)(=O)N7CCC(Nc8ncc(Cl)cn8)CC7)c6)CC5)CC4)ccc3C2=O)C(=O)N1 (centres unmarked); 10 to 100 nM
3) Cn1c(=O)n(C2CCC(=O)NC2=O)c2cccc(C3CCN(CC4CCN(c5cccc(S(=O)(=O)N6CCC(Nc7ncc(C(F)(F)F)cn7)CC6)c5)CC4)CC3)c21 (centres unmarked); 1 to 10 nM
4) Cn1nc(N2CCC(=O)NC2=O)c2ccc(C3CCN(CCCc4cccc(S(=O)(=O)N5CCC(Nc6ncc(OC(F)F)cn6)CC5)c4)CC3)cc21; 10 to 100 nM
5) CN(CCCN1CCC(c2cccc3c2n(C)c(=O)n3C2CCC(=O)NC2=O)CC1)c1cccc(S(=O)(=O)N2CCC(Nc3ncc(C(F)(F)F)cn3)CC2)c1 (centres unmarked); 10 to 100 nM
6) Cn1nc(N2CCC(=O)NC2=O)c2ccc(C3CCN(CC4(O)CCN(c5cc(S(=O)(=O)N6CCC(Nc7ncc(Cl)cn7)CC6)ccc5C#N)CC4)CC3)cc21; 10 to 100 nM

// lookup DC50 | system=CDK2 (Homo sapiens) | key= Cn1c(=O)n(C2CCC(=O)NC2=O)c2c(F)ccc(C3CCN(CC4CCN(c5cc(S(=O)(=O)N6CCC(Nc7ncc(Cl)cn7)CC6)ccc5C#N)CC4)CC3)c21 (centres unmarked) 10 to 100 nM

// lookup DC50 | system=CDK2 (Homo sapiens) | key= `Cn1nc(N2CCC(=O)NC2=O)c2cc(F)c(C3CCN(Cc4cccc(S(=O)(=O)N5CCC(Nc6ncc(Cl)cn6)CC5)c4)CC3)cc21` 10 to 100 nM

// lookup DC50 | system=CDK2 (Homo sapiens) | key= `O=C1CCN(c2nn(CC(F)(F)F)c3cc(C4CCN(CC5CCN(c6cccc(S(=O)(=O)N7CCC(Nc8ncc(C(F)(F)F)cn8)CC7)c6)CC5)CC4)ccc23)C(=O)N1` 10 to 100 nM

// lookup DC50 | system=CDK2 (Homo sapiens) | key= Cn1c(=O)n(C2CCC(=O)NC2=O)c2cccc(C3CCN(CC4CCN(c5cc(S(=O)(=O)N6CCC(Nc7ncc(C(F)(F)F)cn7)CC6)ccc5C#N)CC4)CC3)c21 (centres unmarked) 1 to 10 nM

// lookup DC50 | system=CDK2 (Homo sapiens) | key= O=C1CCC(c2csc3cc(C4CCN(CC5CCN(c6cccc(S(=O)(=O)N7CCC(Nc8ncc(C(F)(F)F)cn8)CC7)c6)CC5)CC4)ccc23)C(=O)N1 (centres unmarked) 10 to 100 nM
